B1: PLAGL1 (parent)
chain: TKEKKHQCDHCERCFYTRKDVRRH

variants of: B1; assay: protein stability index of a GFP-peptide fusion (GPS, HEK-293T) (PSI 1-6); higher = more stable; settings: c terminus: a fixed tail appended;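 note: lentivirally expressed fusions sorted by FACS into six bins by GFP to DsRed ratio, PSI derived from sequencing read proportions per bin multiplied by bin number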
Form field: protein stability index (one value per entry).
assay-endpoint: protein stability index

> print(dat)
    mutation.spec           assay.endpoint  experimental.result
 1           R23F  protein stability index                 3.33
 2           D20C  protein stability index                 3.02
 3            Q7M  protein stability index                 2.71
 4           H10T  protein stability index                 3.37
 5            K2Y  protein stability index                 3.21
 6            K5F  protein stability index                 3.22
 7            C8E  protein stability index                 3.84
 8            E3S  protein stability index                 3.48
 9           D20G  protein stability index                 3.21
10            D9I  protein stability index                 2.53
11           E12Q  protein stability index                 3.15
12           C14W  protein stability index                 3.65
13            K2W  protein stability index                 3.16
14            H6G  protein stability index                 2.88
15           R13C  protein stability index                 3.39
16            T1N  protein stability index                 3.38
17            D9Y  protein stability index                 2.46
18           R23W  protein stability index                 3.08
19            K2M  protein stability index                 3.71
20            E3C  protein stability index                 4.51
21           R13V  protein stability index                 3.41
22           E12P  protein stability index                 4.17
23            C8L  protein stability index                 3.56
24            K4G  protein stability index                 3.49
25            K5H  protein stability index                 3.82
26           R22K  protein stability index                 3.76
27           H10G  protein stability index                 4.13
28            Q7F  protein stability index                 2.91
29           V21T  protein stability index                 3.34
30           F15P  protein stability index                 3.06
31            K4V  protein stability index                 3.24
32           T17S  protein stability index                 3.12
33            C8Y  protein stability index                 2.78
34           Y16I  protein stability index                 3.18
35           E12C  protein stability index                 3.27
36            T1P  protein stability index                 3.48
37           R13S  protein stability index                 3.35
38           R18C  protein stability index                 3.06
39           R18D  protein stability index                 3.82
40           Y16E  protein stability index                 4.19
41           H24S  protein stability index                 3.27
42           C14G  protein stability index                 4.02
43           R13N  protein stability index                 3.81
44            T1G  protein stability index                 3.68
45            K5V  protein stability index                 3.63
46           K19S  protein stability index                 3.17
